Test system: Plasmodium falciparum
Assay: Calibr Malaria Delayed Death Assay SOP
Format: functional, organism-based
Parameters: scale not given: in the data most compounds retested in dose-response had high values
Conditions: concentration 4.99e-06 (unit not given; other assays of the set use mol/L)
Out of some 38,000 compounds screened, about 1,200 (3.2%) showed an effect of 50% or more. The median lay at about -58%. The sample holds strong results, similar compounds and a random draw of the others, so the mix is not that of the screen.
Would you mind classing the entries by Percent Effect? Ranges: bottom: < -80%; middle: ≥ -80% and < -20%; top: ≥ -20%

>>> category("Cc1cccc(C(C)NCC2CCS(=O)(=O)CC2)c1 (stereo unspecified)")
"top"
>>> category("COc1cccc(CN2CC(O)CN(C(=O)C(C)(C)C)CC2=O)c1OC (stereo unspecified)")
"bottom"

Just checking, what class would you give CC(NCC1CCN(CCO)CC1)c1cccc(Cl)c1 (stereo unspecified) here?
top

Please indicate the class for `CC(C)COC[C@H]1CC[C@H]2[C@H](CCN2C(=O)c2ccncc2F)O1.O=C(O)C(F)(F)F` based on its Percent Effect.
bottom

The entry to classify is `CN(Cc1cnn(C)c1)C(=O)CCc1ccc2c(c1)OCO2` ; which class holds it?
middle

# bin lookup: classify `Cc1cnn(C2CN(CCOc3ccccc3C#N)C2)c1` by its Percent Effect
bottom

Value source: ChEMBL document CHEMBL3988442
